Biological target: Adrenergic receptor alpha-2 (Rattus norvegicus, UniProt P22086+P19328+P22909)
Sequence (P22086 whole entry): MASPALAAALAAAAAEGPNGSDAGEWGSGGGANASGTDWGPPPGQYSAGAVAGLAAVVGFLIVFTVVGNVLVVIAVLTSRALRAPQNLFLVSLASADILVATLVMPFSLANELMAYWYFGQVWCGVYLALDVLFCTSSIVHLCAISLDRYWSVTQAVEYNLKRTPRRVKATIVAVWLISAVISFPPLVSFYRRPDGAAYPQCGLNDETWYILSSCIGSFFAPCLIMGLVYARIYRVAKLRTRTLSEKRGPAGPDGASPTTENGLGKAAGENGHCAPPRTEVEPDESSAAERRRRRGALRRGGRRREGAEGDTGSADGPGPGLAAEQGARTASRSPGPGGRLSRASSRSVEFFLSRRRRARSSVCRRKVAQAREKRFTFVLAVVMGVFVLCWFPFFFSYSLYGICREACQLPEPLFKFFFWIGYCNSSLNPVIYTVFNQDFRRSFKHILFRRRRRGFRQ
Sequence (P19328 whole entry): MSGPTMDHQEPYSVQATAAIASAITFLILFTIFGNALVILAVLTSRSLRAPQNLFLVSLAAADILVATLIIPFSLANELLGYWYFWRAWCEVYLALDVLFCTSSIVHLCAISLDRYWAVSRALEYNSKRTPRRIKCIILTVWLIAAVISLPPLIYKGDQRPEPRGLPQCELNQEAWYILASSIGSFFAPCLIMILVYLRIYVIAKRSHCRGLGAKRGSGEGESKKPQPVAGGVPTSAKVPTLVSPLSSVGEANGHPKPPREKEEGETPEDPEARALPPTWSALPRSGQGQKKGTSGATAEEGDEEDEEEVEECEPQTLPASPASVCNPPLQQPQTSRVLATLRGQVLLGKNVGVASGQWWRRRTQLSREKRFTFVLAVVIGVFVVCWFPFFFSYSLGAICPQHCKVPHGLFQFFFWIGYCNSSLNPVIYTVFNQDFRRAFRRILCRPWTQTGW
Sequence (P22909 whole entry): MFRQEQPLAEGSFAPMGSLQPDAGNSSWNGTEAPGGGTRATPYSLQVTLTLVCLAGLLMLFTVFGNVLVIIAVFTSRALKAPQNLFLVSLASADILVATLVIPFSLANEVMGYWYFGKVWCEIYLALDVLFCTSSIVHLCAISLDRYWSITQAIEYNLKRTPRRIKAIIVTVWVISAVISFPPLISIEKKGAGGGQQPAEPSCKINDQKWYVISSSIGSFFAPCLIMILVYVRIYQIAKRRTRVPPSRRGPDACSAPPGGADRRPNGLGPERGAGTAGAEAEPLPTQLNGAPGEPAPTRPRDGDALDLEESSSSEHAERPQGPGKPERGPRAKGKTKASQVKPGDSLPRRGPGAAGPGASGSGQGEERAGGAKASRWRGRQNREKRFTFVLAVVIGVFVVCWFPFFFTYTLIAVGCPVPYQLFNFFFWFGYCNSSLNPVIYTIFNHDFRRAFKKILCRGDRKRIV
Assay: Inhibition of [3H]clonidine binding to the rat alpha-2-adrenoceptor
Assay type: protein assay
Design: unit not given here
metric: Log Ki

INSERT INTO assay_data (entrysmiles, measured) VALUES
  ('C[C@@H]1Cc2ccc([N+](=O)[O-])cc2CN1', 4.28),
  ('Oc1ccc2c(c1)CNCC2', 5.65),
  ('Ic1ccc2c(c1)CNCC2', 6.66),
  ('Nc1ccc2c(c1)CNCCC2', 3.96),
  ('COc1cccc2c1CNCC2', 6.52);

----------
Target: Phenylethanolamine N-methyltransferase (Bos taurus)
Sequence (P10938 whole entry): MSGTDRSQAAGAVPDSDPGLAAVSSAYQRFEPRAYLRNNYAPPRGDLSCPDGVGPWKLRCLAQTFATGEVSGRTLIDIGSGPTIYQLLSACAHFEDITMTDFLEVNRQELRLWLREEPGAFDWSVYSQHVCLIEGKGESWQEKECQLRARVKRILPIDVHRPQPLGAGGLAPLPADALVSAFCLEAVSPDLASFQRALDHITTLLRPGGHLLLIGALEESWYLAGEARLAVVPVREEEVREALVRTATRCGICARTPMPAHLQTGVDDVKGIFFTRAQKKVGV
pKi: −log10 of the molar value.
// FALSE strictly below 5 in pKi; TRUE otherwise

INSERT INTO measurements (entrysmiles, cat) VALUES
  ('COC(=O)Nc1ccc2c(c1)CNCC2', 'FALSE'),
  ('C[C@@H]1Cc2ccc(Cl)c(Cl)c2CN1', 'TRUE'),
  ('C[C@H](N)c1ccc(Cl)c(Cl)c1', 'TRUE'),
  ('Oc1ccc2c(c1)CCNC2', 'TRUE'),
  ('COc1ccc2c3c(ccc2c1)CCNC3', 'FALSE'),
  ('COc1ccc(OC)c2c1CCNC2', 'FALSE'),
  ('Nc1ccc2c(c1)CNCCC2', 'FALSE'),
  ('FC(F)(F)c1ccc2c(c1)CNCC2', 'TRUE'),
  ('Oc1cc2c(cc1O)CNCC2', 'TRUE'),
  ('C[C@@H](N)c1ccc(Cl)c(Cl)c1', 'FALSE');
